System: Escherichia coli TOP10;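 further: peptides expressed intracellularly from a pBAD plasmid library in pooled LB shake-flask culture, induced with 0.3% L-arabinose, DNA abundance read by NGS, three biological replicates, DESeq2 with apeglm shrinkage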
Assay: shrunken log2 fold change of peptide-encoding DNA abundance (4.5 h post-induction vs induction); higher = less antimicrobial activity (less host growth inhibition)
Conditions: time post-induction: 4.5 h; library: site-saturation at positions 5, 18, 19, 20
Tag: Satisfied if measured shrunken log2 fold change is not below 0.09, Not satisfied if it is.

Dear colleague, could you confirm whether RRIRCRPPRLPRPRPRPPGTPRP has shrunken log2 fold change at or above 0.09?
Satisfied

Dear colleague, could you confirm whether RRIRARPPRLPRPRPRPRRRPRP has shrunken log2 fold change at or above 0.09?
Satisfied

Dear colleague, could you confirm whether RRIRMRPPRLPRPRPRPKERPRP has shrunken log2 fold change at or above 0.09?
Not satisfied

Dear colleague, could you confirm whether RRIRTRPPRLPRPRPRPYYQPRP has shrunken log2 fold change at or above 0.09?
Not satisfied

Dear colleague, could you confirm whether RRIRARPPRLPRPRPRPGFVPRP has shrunken log2 fold change at or above 0.09?
Satisfied

Dear colleague, could you confirm whether RRIRPRPPRLPRPRPRPLMPPRP has shrunken log2 fold change at or above 0.09?
Not satisfied

Dear colleague, could you confirm whether RRIRHRPPRLPRPRPRPCKYPRP has shrunken log2 fold change at or above 0.09?
Not satisfied

Dear colleague, could you confirm whether RRIRHRPPRLPRPRPRPWGFPRP has shrunken log2 fold change at or above 0.09?
Not satisfied

Dear colleague, could you confirm whether RRIRWRPPRLPRPRPRPHYVPRP has shrunken log2 fold change at or above 0.09?
Not satisfied

Dear colleague, could you confirm whether RRIRNRPPRLPRPRPRPITPPRP has shrunken log2 fold change at or above 0.09?
Satisfied

Dear colleague, could you confirm whether RRIRERPPRLPRPRPRPCLTPRP has shrunken log2 fold change at or above 0.09?
Not satisfied

Dear colleague, could you confirm whether RRIRMRPPRLPRPRPRPYCFPRP has shrunken log2 fold change at or above 0.09?
Not satisfied

Dear colleague, could you confirm whether RRIRERPPRLPRPRPRPGYVPRP has shrunken log2 fold change at or above 0.09?
Not satisfied

Dear colleague, could you confirm whether RRIRRRPPRLPRPRPRPHIDPRP has shrunken log2 fold change at or above 0.09?
Not satisfied

Dear colleague, could you confirm whether RRIRVRPPRLPRPRPRPSIEPRP has shrunken log2 fold change at or above 0.09?
Not satisfied

Dear colleague, could you confirm whether RRIRARPPRLPRPRPRPETIPRP has shrunken log2 fold change at or above 0.09?
Satisfied

Dear colleague, could you confirm whether RRIRKRPPRLPRPRPRPFTDPRP has shrunken log2 fold change at or above 0.09?
Not satisfied

Dear colleague, could you confirm whether RRIRVRPPRLPRPRPRPCTSPRP has shrunken log2 fold change at or above 0.09?
Not satisfied

Dear colleague, could you confirm whether RRIRDRPPRLPRPRPRPPYHPRP has shrunken log2 fold change at or above 0.09?
Not satisfied

Dear colleague, could you confirm whether RRIRGRPPRLPRPRPRPTESPRP has shrunken log2 fold change at or above 0.09?
Satisfied

Dear colleague, could you confirm whether RRIRVRPPRLPRPRPRPMIDPRP has shrunken log2 fold change at or above 0.09?
Not satisfied

Dear colleague, could you confirm whether RRIRDRPPRLPRPRPRPCLAPRP has shrunken log2 fold change at or above 0.09?
Satisfied

Dear colleague, could you confirm whether RRIRCRPPRLPRPRPRPMRDPRP has shrunken log2 fold change at or above 0.09?
Satisfied

Dear colleague, could you confirm whether RRIRCRPPRLPRPRPRPPAKPRP has shrunken log2 fold change at or above 0.09?
Satisfied

Dear colleague, could you confirm whether RRIRHRPPRLPRPRPRPSQLPRP has shrunken log2 fold change at or above 0.09?
Not satisfied

Dear colleague, could you confirm whether RRIRRRPPRLPRPRPRPCCQPRP has shrunken log2 fold change at or above 0.09?
Not satisfied

Dear colleague, could you confirm whether RRIRQRPPRLPRPRPRPVVNPRP has shrunken log2 fold change at or above 0.09?
Not satisfied

Dear colleague, could you confirm whether RRIRKRPPRLPRPRPRPAMFPRP has shrunken log2 fold change at or above 0.09?
Satisfied

Dear colleague, could you confirm whether RRIRIRPPRLPRPRPRPDYHPRP has shrunken log2 fold change at or above 0.09?
Not satisfied

Dear colleague, could you confirm whether RRIRIRPPRLPRPRPRPIVDPRP has shrunken log2 fold change at or above 0.09?
Not satisfied

Dear colleague, could you confirm whether RRIRERPPRLPRPRPRPWKSPRP has shrunken log2 fold change at or above 0.09?
Not satisfied

Dear colleague, could you confirm whether RRIRFRPPRLPRPRPRPLMCPRP has shrunken log2 fold change at or above 0.09?
Not satisfied

Dear colleague, could you confirm whether RRIRRRPPRLPRPRPRPRYRPRP has shrunken log2 fold change at or above 0.09?
Not satisfied

Dear colleague, could you confirm whether RRIRMRPPRLPRPRPRPANDPRP has shrunken log2 fold change at or above 0.09?
Satisfied

Dear colleague, could you confirm whether RRIRCRPPRLPRPRPRPTVQPRP has shrunken log2 fold change at or above 0.09?
Not satisfied

Dear colleague, could you confirm whether RRIRDRPPRLPRPRPRPQGHPRP has shrunken log2 fold change at or above 0.09?
Not satisfied

Dear colleague, could you confirm whether RRIRTRPPRLPRPRPRPRRWPRP has shrunken log2 fold change at or above 0.09?
Not satisfied

Dear colleague, could you confirm whether RRIRSRPPRLPRPRPRPFPEPRP has shrunken log2 fold change at or above 0.09?
Not satisfied

Dear colleague, could you confirm whether RRIRGRPPRLPRPRPRPLWAPRP has shrunken log2 fold change at or above 0.09?
Satisfied

Dear colleague, could you confirm whether RRIRTRPPRLPRPRPRPTDIPRP has shrunken log2 fold change at or above 0.09?
Not satisfied

Dear colleague, could you confirm whether RRIRDRPPRLPRPRPRPFAAPRP has shrunken log2 fold change at or above 0.09?
Satisfied

Dear colleague, could you confirm whether RRIRTRPPRLPRPRPRPGEQPRP has shrunken log2 fold change at or above 0.09?
Satisfied

Dear colleague, could you confirm whether RRIRMRPPRLPRPRPRPRILPRP has shrunken log2 fold change at or above 0.09?
Satisfied

Dear colleague, could you confirm whether RRIRMRPPRLPRPRPRPASTPRP has shrunken log2 fold change at or above 0.09?
Satisfied

Dear colleague, could you confirm whether RRIRYRPPRLPRPRPRPGCTPRP has shrunken log2 fold change at or above 0.09?
Not satisfied

Dear colleague, could you confirm whether RRIRSRPPRLPRPRPRPMHAPRP has shrunken log2 fold change at or above 0.09?
Satisfied

Dear colleague, could you confirm whether RRIRSRPPRLPRPRPRPVRAPRP has shrunken log2 fold change at or above 0.09?
Satisfied

Dear colleague, could you confirm whether RRIRWRPPRLPRPRPRPGSGPRP has shrunken log2 fold change at or above 0.09?
Satisfied

Dear colleague, could you confirm whether RRIRMRPPRLPRPRPRPQLQPRP has shrunken log2 fold change at or above 0.09?
Satisfied

Dear colleague, could you confirm whether RRIRIRPPRLPRPRPRPPFQPRP has shrunken log2 fold change at or above 0.09?
Not satisfied

Dear colleague, could you confirm whether RRIRTRPPRLPRPRPRPICHPRP has shrunken log2 fold change at or above 0.09?
Not satisfied

Dear colleague, could you confirm whether RRIRPRPPRLPRPRPRPEDYPRP has shrunken log2 fold change at or above 0.09?
Not satisfied
